All values here come from patent US10556936B2.

Test system: PBMC cells obtained from mite allergic patients and non-allergics
Experiment: Ex vivo stimulation of PBMC: cytokine production (IFN-gamma, IL-9, IL-10, IL-17, IL-31)
Assay type: cell-based, human
Conditions: non-allergic individuals; IL-17
test.readout: % non-allergic individuals with cytokine production in ex-vivo T cell assay IL-17
Just so you know, I need the unit written after the number.

Qu. What does the data say about its % non-allergic individuals with cytokine production in ex-vivo T cell assay IL-17? Entry: Derf1: major house dust mite allergen, group 1, Dermatophagoides farinae; control (protein, UniProt P16311 99-321, looked up) Peptidase 1: TSACRINSVNVPSELDLRSLRTVTPIRMQGGCGSCWAFSGVAATESAYLAYRNTSLDLSEQELVDCASQHGCHGDTIPRGIEYIQQNGVVEERSYPYVAREQRCRRPNSQHYGISNYCQIYPPDVKQIREALTQTHTAIAVIIGIKDLRAFQHYDGRTIIQHDNGYQPNYHAVNIVGYGSTQGDDYWIVRNSWDTTWGDSGYGYFQAGNNLMMIEQYPYVVIM
Ans. 17%

Qu. What does the data say about its % non-allergic individuals with cytokine production in ex-vivo T cell assay IL-17? Entry: Derp2: major house dust mite allergen, group 2, Dermatophagoides pteronyssinus; control (protein, UniProt P49278 18-146, looked up) Mite group 2 allergen Der p 2: DQVDVKDCANHEIKKVLVPGCHGSEPCIIHRGKPFQLEAVFEANQNTKTAKIEIKASIDGLEVDVPGIDPNACHYMKCPLVKGQQYDIKYTWNVPKIAPKSENVVVTVKVMGDDGVLACAIATHAKIRD
Ans. 0%

Qu. What does the data say about its % non-allergic individuals with cytokine production in ex-vivo T cell assay IL-17? Entry: A017: house dust mite protein; SEQ ID NO: 21 (Der f), 25 (Der p), 313 (Blo t) (protein) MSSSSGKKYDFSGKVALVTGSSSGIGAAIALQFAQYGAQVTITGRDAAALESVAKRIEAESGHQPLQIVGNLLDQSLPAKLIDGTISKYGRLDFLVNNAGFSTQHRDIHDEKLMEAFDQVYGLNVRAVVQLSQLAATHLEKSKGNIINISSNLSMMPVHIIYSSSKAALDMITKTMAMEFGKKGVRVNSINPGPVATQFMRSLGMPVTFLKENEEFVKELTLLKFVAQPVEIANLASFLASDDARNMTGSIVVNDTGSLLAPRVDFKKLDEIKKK
Ans. 17%

Qu. What does the data say about its % non-allergic individuals with cytokine production in ex-vivo T cell assay IL-17? Entry: A019: house dust mite protein; SEQ ID NO: 1 (Der f), 4 (Der p), 315 (Blo t) (protein) QVYCNGAAIVSAARSQIGVPYSWGGGGIHGKSRGIGEGANTVGFDCSGLAQYSVYQGTHKVLARVASGQYSDPKCHHVAYGSHQPGDLVFFGNPIHHVGIVSAHGRMINAPHTGTNVREENIWSDHIANVARCW
Ans. 100%

Qu. What does the data say about its % non-allergic individuals with cytokine production in ex-vivo T cell assay IL-17? Entry: A016: house dust mite protein; SEQ ID NO: 28 (Der f), 29 (Der p) (protein) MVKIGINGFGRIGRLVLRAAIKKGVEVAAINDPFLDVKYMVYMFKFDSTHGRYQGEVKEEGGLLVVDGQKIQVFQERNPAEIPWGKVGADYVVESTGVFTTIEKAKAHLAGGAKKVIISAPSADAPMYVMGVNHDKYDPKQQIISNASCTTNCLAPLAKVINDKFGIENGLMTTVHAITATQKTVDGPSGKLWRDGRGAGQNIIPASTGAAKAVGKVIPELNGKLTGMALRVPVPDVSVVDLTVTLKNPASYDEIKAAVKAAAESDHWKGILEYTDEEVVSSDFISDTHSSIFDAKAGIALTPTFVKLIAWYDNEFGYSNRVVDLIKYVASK
Ans. 17%
